Recorded Avg % Deletion for the following molecules
Test system: TTR
protocol-summary: TTR editing in primary human hepatocytes transfected with Spy Cas9 protein and sgRNAs (Table 12)
Format: cell-based
setup-conditions: primary human hepatocytes transfected with Spy Cas9 protein (RNP) and sgRNAs
Strand notation (5' to 3'): a small letter for the sugar, then the base; units joined by * are phosphorothioate-linked, units joined directly phosphodiester-linked; [ ] holds rarer units or linkages, { } end groups; capitals alone tell only the bases. m = 2'-O-methyl; r = 2'-OH (RNA)
Please state the figure in %; there is no need to write the unit.

Check out these entries, answers already filled in.
>  <molecule>
G000482: TTR sgRNA modified sequence, Human, SEQ ID No. 89; guide sequence of CR003365 (nucleic acid) guide: mU*mG*mU*rArGrArArGrGrGrArUrArUrArCrArArArGrGrUrUrUrUrArGrAmGmCmUmAmGmAmAmAmUmAmGmCrArArGrUrUrArArArArUrArArGrGrCrUrArGrUrCrCrGrUrUrArUrCrAmAmCmUmUmGmAmAmAmAmAmGmUmGmGmCmAmCmCmGmAmGmUmCmGmGmUmGmCmU*mU*mU*mU

>  <Avg % Deletion [%]>
10.10

$$$$
>  <molecule>
G000488: TTR sgRNA modified sequence, Human, SEQ ID No. 95; guide sequence of CR003346 (nucleic acid) guide: mA*mA*mA*rGrUrUrCrUrArGrArUrGrCrUrGrUrCrCrGrGrUrUrUrUrArGrAmGmCmUmAmGmAmAmAmUmAmGmCrArArGrUrUrArArArArUrArArGrGrCrUrArGrUrCrCrGrUrUrArUrCrAmAmCmUmUmGmAmAmAmAmAmGmUmGmGmCmAmCmCmGmAmGmUmCmGmGmUmGmCmU*mU*mU*mU

>  <Avg % Deletion [%]>
35.00

$$$$

Turning to the following molecule.
Qu. Recorded Avg % Deletion of G000490: TTR sgRNA modified sequence, Human, SEQ ID No. 97; guide sequence of CR003366 (nucleic acid) guide: mA*mA*mA*rUrArGrArCrArCrCrArArArUrCrUrUrArCrGrUrUrUrUrArGrAmGmCmUmAmGmAmAmAmUmAmGmCrArArGrUrUrArArArArUrArArGrGrCrUrArGrUrCrCrGrUrUrArUrCrAmAmCmUmUmGmAmAmAmAmAmGmUmGmGmCmAmCmCmGmAmGmUmCmGmGmUmGmCmU*mU*mU*mU , please.
Ans. 9.80
